The following compounds are shown together with reported melting point values.

Below, 2 compounds whose answers are already recorded.
| SMILES STR | MEASURED ENDPOINT | MEASURED VALUE |
| --- | --- | --- |
| Oc1ccc(-c2c3ccccc3c(C(F)(F)F)c3sc4ccccc4c23)cc1 | melting point | 210 to 211 °C |
| CC(C)(C)OC(=O)N[C@H]1CC[C@H](CC=O)CC1 | melting point | 61 to 63 °C |

Okay, now this compound:
Enquiry: Which melting point value belongs to O=C(c1ccccc1)N1CCNc2ncc(I)cc21 ?
Return: 164 to 166 °C

----------
Collected melting point values appear next to each entry.

Worked cases, answers included:
| MOLECULE | MEASURED ENDPOINT | MEASURED VALUE |
| --- | --- | --- |
| Cc1cc(-n2c(=O)cc(C(F)(F)F)[nH]c2=O)c(F)cc1Br | melting point | 186 °C |
| OCCOCCNc1ncncc1Cc1ccccc1 | melting point | 86 to 87 °C |
| CC(C)(C)OC(=O)N1CCC(C(c2cc(F)ccc2F)S(=O)(=O)c2ccc(Cl)cc2)CC1 (stereo not drawn) | melting point | 193 to 196 °C |
| CC(=O)Nc1cncc(NC(=NC#N)NC2(c3ccccc3)CCC2)c1 | melting point | 207 to 208 °C |
| N#CNC(=NCCN1CCC(C2(c3ccc(F)cc3)OCCO2)CC1)N1CCCCC1 | melting point | 155 to 157 °C |

Now consider a different molecule.
Enquiry: // melting point lookup, key: C=C(C(=O)c1ccc(Cl)cc1)c1ccccc1
Return: 42 °C

----------
MEASURED ENDPOINT: melting point

Sample records with melting point:
| COMPOUND | MEASURED ENDPOINT | MEASURED VALUE |
| --- | --- | --- |
| Cc1ccc(C[C@H]2NC(=O)O[C@H]2c2ccc(F)cc2)cc1OC(F)(F)C(F)F (racemic) | melting point | 112 to 113 °C |
| CC1=NN(c2ccc(Cl)cc2)C(c2ccc(NC(=O)c3cccc(I)c3C(=O)NC(C)C)c(C)c2)C1 (centres undefined) | melting point | 222 to 224 °C |
| Cc1sc2c(Br)c3ccccc3c(-c3cc(Br)c(O)c(Br)c3)c2c1C | melting point | 172 to 174 °C |
| Cc1c(-c2ccccc2)oc(=O)c(Sc2ccccc2)c1O | melting point | 166 to 167 °C |
| Cc1cccc2c(=O)n3c(nc12)C(=O)c1cc(F)ccc1-3 | melting point | 255 to 257 °C |

Now for another entry.
Enquiry: # lookup: melting point of CC=C(C)C1CCC2C3CC=C4CC(O)CCC4(C)C3CCC12C (centres undefined)
Return: 140 to 145 °C

----------
Reported values of melting point for individual entries

Here is how some compounds turned out for melting point.
| COMPOUND | MEASURED VALUE |
| --- | --- |
| O=C1c2ccccc2-c2[nH]c(=O)cnc21 | > 300 °C |
| O=c1c2cc(F)c(Cl)nc2n(-c2ccc(F)cc2F)c(=O)n1OCc1ccccc1 | 215 to 216 °C |
| CN(Cc1ccc(NC(=O)C2=Cc3cc(-c4ccc(OC(F)(F)F)cc4)ccc3S(=O)(=O)CC2)cc1)C1CCOCC1 | 261 to 263 °C |
| CCn1c(C)nc2cc(S(C)(=O)=O)c(Cl)c([N+](=O)[O-])c21 | 75 to 79 °C |
| Oc1ccc2cc(-c3csc(Cc4c(Cl)cccc4Cl)n3)ccc2c1 | 191 to 193 °C |

Enquiry: I'd like to know its melting point. The compound in question is COC(=O)c1ccccc1S(=O)(=O)NC(=O)n1nc(Cl)n(N(C)C)c1=O
Return: 146 °C

Enquiry: Requested field: melting point. Item: COC(=O)CCCCCCC1C(=O)Cc2cc(OC)ccc21 (stereo unspecified)
Return: 33.5 to 35 °C

Enquiry: Data request, read-out melting point, for CC(C)(C)c1ccc(O)c(C2=CCCCC2)c1
Return: 90 to 93 °C

----------
Below, each entry is listed alongside its reported melting point.

| MOLECULE | melting point |
| --- | --- |
| CN1C(=O)CC[C@]2(C)c3ccc(Sc4nc5c(OC(F)(F)F)cccc5s4)cc3CC[C@@H]12 | 168 to 173 °C |
| CS(=O)(=O)N1CCN(CCC(CS(=O)(=O)c2ccc(Oc3ccc(OC(F)(F)F)cc3)cc2)N(O)C=O)CC1 (stereo not drawn) | 166 to 167 °C |

Enquiry: # query: melting point of entry CCN1CCCC1CNC(=O)CCCOc1ccc2nc3[nH]c(=O)[nH]c3cc2c1 (stereo not drawn)
Return: 233 to 237 °C

----------
MEASURED ENDPOINT: melting point

Reference set (5 entries):
| COMPOUND | melting point |
| --- | --- |
| COC(=O)C1=Cc2cc(Br)ccc2CCC1 | 83 to 84 °C |
| COC(=O)c1ccc(N2CCCC2=O)cc1 | 118 to 120 °C |
| CN1C(=O)N(CCC(COc2ccc(-c3ccc(C#N)cc3)cc2)N(O)C=O)C(=O)C1(C)C (stereo unspecified) | 68 to 70 °C |
| O[C@@H](CNCCOc1ccc2oc(-c3noc(C(F)(F)F)n3)cc2c1)COc1ccccc1Cl | 112 to 115 °C |
| CCOC(=O)C1N=c2sccc2=CN1N (stereo unspecified) | 138 to 140 °C |

Could you now look at the following compound, please?
Enquiry: Please look up its melting point: N#CC1(N)CC2(OC(c3ccccc3)C(c3ccccc3)O2)C2C1C2(F)C(N)=O (stereo unspecified)
Return: 197 °C

----------
# reported melting point; entries follow

Example entries begin here.
| COMPOUND | melting point |
| --- | --- |
| O=C(O)C1=Cc2cc(Br)cc(F)c2OC1C(F)(F)F (stereo not given) | 206 to 208 °C |
| O=C(O)/C=C/c1oc(-c2ccccc2)nc1-c1ccc(Cl)cc1 | 255 to 257 °C |
| CCC(c1ccc(Br)cc1)N(O)C(N)=O (stereo not given) | 139 to 141 °C |

Enquiry: Any idea what melting point was measured for CCOC(=O)C(C)(C(=O)OCC)C1CCCC(=O)C1 (stereo not given) ?
Return: 129 to 130 °C

Enquiry: Given the compound O=C(O)C1CC(Cl)=C(c2ccccc2)CC1C(=O)O (stereo not given) , what is its reported melting point?
Return: 82 to 90 °C

Enquiry: Can you look up the measured melting point of O=C(O)C(O)c1cccc(OCc2ccccc2Cl)c1OCc1ccccc1Cl (stereo not given) for me?
Return: 98 to 100 °C

Enquiry: Field request: melting point | item: Cc1cc2c(cc1-c1csc(C=CC(=O)O)c1)C(C)(C)CCC2(C)C
Return: 215 to 220 °C

Enquiry: Any idea what melting point was measured for CC(=O)NC[C@H]1CN(c2ccc(N3CCC(O)(CN4CCNCC4)CC3)c(F)c2)C(=O)O1 ?
Return: 175 to 177 °C

Enquiry: Suppose we examine the compound N#Cc1c(N2CCc3ccccc3CC2)nc2n(c1=O)CCC2 ; what melting point value has been reported?
Return: 184 to 190 °C

Enquiry: Any idea what melting point was measured for CS(=O)COC(=O)c1oc(-c2ccccc2)cc(=O)c1Br (stereo not given) ?
Return: 159 °C

Enquiry: Can you share its melting point? I mean this compound: CCCCN(C(=O)Nc1ccc(F)cc1F)c1cnc2ccc(Cl)cc2c1-c1ccccc1Cl
Return: 63 to 66 °C

Enquiry: GET /values?readout=melting point&item= CCCc1oc(C)cc(=O)c1C(=O)Nc1cccc(C)c1C
Return: 133 to 135 °C

Enquiry: Quick one: melting point of COc1cccc2c1C(N)=NS2(=O)=O ?
Return: 270 °C

----------
MEASURED ENDPOINT: melting point

Past entries and their recorded results:
| COMPOUND | melting point |
| --- | --- |
| CCN(CCCCc1coc2c(OC)cccc12)C1COc2c(F)ccc(C(N)=O)c2C1 (stereo not given) | 112 to 118 °C |
| CC(O)(C(=O)Nc1ccc(C(=O)c2ccccc2)c(F)c1)C(F)(F)F (stereo not given) | 132 to 134 °C |
| COc1cccc(CC(=O)O)c1OCCCc1cn(-c2ccc(C#N)nn2)nc1C(C)C | 132 to 133 °C |

Enquiry: Please report the recorded melting point for COCCc1nc2c(N)nc3ccccc3c2n1CCCCCCCCNC(=O)Nc1ccccc1 .
Return: 136 to 142 °C

Enquiry: Could you share which melting point value was measured for Cc1nnc(COc2ccc([N+](=O)[O-])cc2)o1 ?
Return: 105 to 106 °C

Enquiry: Sample COC(=O)N(CC(=O)OC(C)(C)C)S(=O)(=O)c1ccc(N2CCC(NC[C@H](O)c3ccc(O)c(NS(C)(=O)=O)c3)CC2)cc1 — what was its melting point?
Return: 110 to 115 °C

Enquiry: Need melting point of CC[C@@H](NC(=O)N1CC(=O)NC[C@@H](Cc2cc(Cl)ccc2OC)C1=O)c1cncc(C(=O)O)c1 , thanks.
Return: 138 to 140 °C

Enquiry: Which melting point is listed for NCC(=O)N1c2ccccc2N(Cc2ccccc2)C(=O)[C@H]2CCC[C@H]21 (relative stereo) ?
Return: 163 to 165 °C

Enquiry: State the recorded melting point for this entry: COc1ccc(C(=O)c2ccc(OCc3nc(-c4ccccc4)oc3C)cc2)c(OC(C(=O)O)C(C)C)c1 (stereo not given)
Return: 87 to 88 °C

Enquiry: Can you share its melting point? I mean this compound: N#CC1=C(C2CCN(C(=N)N)CC2)Nc2n[nH]cc2C1c1cccc2nonc12 (stereo not given)
Return: > 270 °C

Enquiry: Entry CCOC(=O)c1c(C(F)(F)F)nc2cc(C(F)(F)F)ccc2c1O has what melting point?
Return: 156 °C

Enquiry: What value of measured melting point is listed for NC(=O)c1c(F)ccc(OCc2nc3ccc(Cl)cc3s2)c1F ?
Return: 190 to 191 °C

Enquiry: Looking for the measured melting point of Cc1cccnc1C(=O)NC(C)(C)C , can you help?
Return: 56 to 58 °C

Enquiry: What does the record list as melting point for C[C@@H]1S[C@@H](C(=O)Nc2ccc(CN3CCC(=O)CC3)cc2)Cc2cc3c(cc2C1=O)OCO3 ?
Return: 199 to 201 °C

Enquiry: Endpoint output: melting point of Cc1cc(Oc2ccc(-c3ccn(CC4CC4)c(=O)c3C#N)cc2F)cc(C)n1 . Value?
Return: 201 °C
